Reference source: the nanobody polyreactivity screen of Harvey et al. (2022)

assay: yeast display, Sf9 membrane polyspecificity reagent, FACS + sequencing; frameworks hold sequencing errors
test_readout: polyreactivity (PSR sort gate)

Answered examples (5):
QEQLVESGGGLVQAGGSLRLSCGASRSIVHYYAMGWYRQAPGKEREFVAAIAWGGDSTYYADSVKGRFTNSRDNANNTVYFQMYSLKPEDTAVYYCAADGPGGIGNGAGYDYWGQGTEVTVSS | low polyreactivity
QVQLVESGGGLVQAGGSLRLSCAASGIIIDNYTMGWYRQAPGKEREFVAAINKSGGSTYADSVKGRFTISRDNAKNTVYLQMNSLKPEDTAVYYCAAEVDYSYWPEYARKYYYWGQGTQVTVSS | low polyreactivity
QVQLVESGGGLVQAGGSLRLSSAASGFILNRNAMGWYRQAPGKVRELVAAISKSGGSTYYADSVKGRFTISRDNAKNTVYLQMNRLKPEDTAVYYCAAYTYLGRYEARRDYWGQGTQVTVSS | high polyreactivity
QVQLVESGGGLVQAGGSLRLSCAASGFILDYNTMGWYRQAPGKERELVAAISSSGDTTYYADSVKGRFTISRDNAKNTVYLQMNSLKPEDTAVYYCGREYGDGYEYWGQGTQVTVSS | low polyreactivity
QVQLVESGGGLVQAGGSLRLSCAASGRTFSVNDMGWYRQAPGKERELVAAISFSGGSTYYADSVKGRFTISRDNAKNTVYLQMNSLKPEDTAVYYCAAEAYPVRRLNLPGYDYWGQGTQVTVSS | high polyreactivity

Please give measured polyreactivity (PSR sort gate) of the following entry: "QVQLVESGGGLVQAGGSLRLSCAASGTIFRLYTMGWYSQAPGKERELVAAITGSGDSTYYADSVKGRFTISRDNAKNTVYLQMNSLKPEDTAFYYFAAKLSRVKYGYWGQGTQVTVSS"
high polyreactivity

Please give measured polyreactivity (PSR sort gate) of the following entry: "QVQLVESGGGLVQAGGSLRLSCAASGRTFTYYGMGWYRQAPGKERELVAAITERGDSTYYADSVKGRFTISRDNAKNTVYLQMNSLKPEDTAVYYCAAAEHLTRPSSPTQDGDHWGQGTQVTVSS"
low polyreactivity

Please give measured polyreactivity (PSR sort gate) of the following entry: "QVQLVQSGGGLVQAGGSLRLSCAASGSIINKYAMGWYRQAPGKERELVAAISFSGGSTYYADSVKGRFTISRDNAKITVYLQMNSLKPEDTAVYYCAAYHRPYQSYYWGKGTQVTVSS"
high polyreactivity

Please give measured polyreactivity (PSR sort gate) of the following entry: "QVQLVESGGGLVQAGGSLRLSCAASGGTFWYYAMGWYRQAPGKERELVASISRGGSTNYADSVKGRFTISRDNAKNTVYLQMNSLKPEDTAVYYCNAGLRVGPRRYVDYEYDYWGQGTQVTVSS"
low polyreactivity

Please give measured polyreactivity (PSR sort gate) of the following entry: "QVQLVESGGGLVQAGGSLRLSCAASGRIFQPYAMGWYRPAPGKDRELVAAITRRAGSTYYADSVKGRFTISRDNAKYTVYLQMNSLKPEDTAVYYCAARGLYWAYEMEYWGQGTQVTVSS"
low polyreactivity

Please give measured polyreactivity (PSR sort gate) of the following entry: "QVQLVESGGGLVQAGGSLRLSCAASGNIFYVYVMGGYRQAPGKERELVASITSGASTYYADSVKGRFTISRDNAKNTVYLQMNSLKPDDTAVYYCAAEALGGAGDYSTLYIYDYWGQGTQVTVSS"
low polyreactivity

###

assay: yeast display, Sf9 membrane polyspecificity reagent, FACS + sequencing; frameworks hold sequencing errors
test_readout: polyreactivity (PSR sort gate)

QVQLVESGGGLVQAGGSLRLSCAASGFIFLNNTLGWYRQAPGKERELVAAISWSGGSTYYADSVKGRFTISRDNAKYSVYLQMNSLKPEDTAVYYCAADVKHTTEYDYWGKGTQVTVSS | high polyreactivity
QVQLVESGGGLVQAGGSLRLSCAASGIIFPYNVMGWYRQAPGKERELVAAITRGAASTYYADSVKGRFTISRDNAKNTVYLQMNSLKPEDTAVYYCATDPVSTRGSDYWGQGTQVTVSS | high polyreactivity

###

assay: yeast display, Sf9 membrane polyspecificity reagent, FACS + sequencing; frameworks hold sequencing errors
test_readout: polyreactivity (PSR sort gate)

QVQLVESGGGLVQAGRSLRLSCAASGRIFSRYTMGWYRQAPGKERELVAANSYRGGSTYYADSVKGRFTISRDNAKNTVYLQMNSLKPEDTEVYYCAARVQAIYRYDYCGQGTQVTVSS | high polyreactivity
QVQLVESGGGLVQAGGSLRLSCAASGRIFTSYTMGWYRQAPGKERELVAAISASGASTYYADSVKGRFTISRDNAKNTVYLQMNSLKPEDSAVYYCATVRPRERRGYWGQGTQVTVSS | high polyreactivity

###

experiment: yeast display, Sf9 membrane polyspecificity reagent, FACS + sequencing; frameworks hold sequencing errors
test_readout: polyreactivity (PSR sort gate)

Answered examples (4):
QVQLVESGGGLVQAGGSLRLSCAASVFTIPPYAMGWYRRAPGKERELVARITWSGDRTYYADSVKGRFTISRDNAKNTFYLQINSLKPEDTAVYYCADDSAQYYEMDYWGQGTQVTVSS | high polyreactivity
QDQLVESGGGLVQAGGRLRLSCAASGFIFWLYAMGWYRQAPGKERELVASINWSGGDTYYADSVKGRFTISRDNAKNTVYLQMNSLKPEDTAVYYCAADWSNLGAYDYWGQGTQVTVSS | low polyreactivity
QVQLVESGGGLVQAGGSLRLSCAASGSIFVQYAMGWYRQAPGKERELVATISDDGSTNYADSVKGRFTISRDNAKNTVYLQMNSLKPEDTAVYYCAADTYYYVGADDYWGQGTQVTVSS | low polyreactivity
QVQLVESGGGLVQAGGSLRLSCAASGITFKYYAMGWYRQAPGKERELVAAINWSGDRTYYADSVKGRFTISRDNAKNTVYLQMNSLKPEDTAVYYCAATAWPGRYWRQEVDYWGQGTQVTVSS | high polyreactivity

Please give measured polyreactivity (PSR sort gate) of the following entry: "QVQLVESGGALVQAGGSLRLNCAASGRIFVYNDMGWYRQAPGNERDLVAAISSVGTTYYADSVKGRFTISRDNAKFTVYLQMKTLKPVETAVYDCDVTRYHSPPRYYFWGQGSQVTVSS"
low polyreactivity

###

test: yeast display, Sf9 membrane polyspecificity reagent, FACS + sequencing; frameworks hold sequencing errors
test_readout: polyreactivity (PSR sort gate)

Answered examples (6):
QVQLVESGGGLVQAGGSLRLSCAASGRIFAYYAMGWYRQAPGKEREFLATITGRGGSTSYADSVKGRFTISRDNAKNTVYLQMNSLKPEDTAVYYCAKRVVVWYFGTGDYWVQGTQVTVSS | low polyreactivity
QVQLVESGGGLVQAGGSLRLSCAASGRIFYYNSKGWYRQAPGKERELVAAITSGDNTKYADSVKGRFTISRDKAKNTVYLQMNSLKPEDTAVYYCAARRYAPYQRRMDYWGQGTQVTVSS | high polyreactivity
QVQLVESGGGLVQAGGSLRLSCAASGFTFRYYAMGWYSQAPGKERELVAAITRSGGSTYYADSVKGRFTISRDNAKNTVYLQMNSLKPDDTGVYYCAARGHYRDGDEYWGQGTEVTVSS | high polyreactivity
QVQLVESGGGLVQAGGSLRLSSAASGRTFVINAMGWYRQAPGKERELVAAITWGGGSTYYADSVKGRFTISRDNAKNTVYLQMNSLKQEDSAVYYCATSYSVQYGGSGYYWGQGTQVTVSS | low polyreactivity
QVQLVESGGGLVQARGSLRLNSAASGRTFYQYVMGWYRQAPWKERELVAAIRSGGNTYYADSEKGRITISRDNAKYTVYLQMNSLKPEDTAVYYCAVQRGYYRFRLGLYCYDYWGQGTQVTVSS | high polyreactivity
QVQLVESGGGLVQAGGSLRLSCAASGSIFADYVMGWYRQAPGKERELVAAITRRGRTYYADSVKGRFTISRDNAKNTVYLQMNSLIPEDTAVYYCAKVASGKIDSWGQGTQVTVSS | low polyreactivity

Please give measured polyreactivity (PSR sort gate) of the following entry: "QVQIVESGVGLVQAGGSLRLSCAASGRIVSSKVMGLYRQAAGKERELVAAITSGGSTYYADSVKGRFTISRDNAKNTVYLQMNSLKPEDTAVYYCAASYWVLRYRYDYWGQGTQVTVSS"
high polyreactivity

Please give measured polyreactivity (PSR sort gate) of the following entry: "QVQLVESGGGLVQAGGRLRLTCAASGSIFEGYAMGWYRQAPGKERELGARITSDDDSTYYADSVKGRFTISRDNAKNSVYLQMKSLKPEDTAVYYCNAVYYWTSLAMDSWGQGTQVTVSS"
low polyreactivity

###

experiment: yeast display, Sf9 membrane polyspecificity reagent, FACS + sequencing; frameworks hold sequencing errors
test_readout: polyreactivity (PSR sort gate)

Answered examples (5):
QVQLVESGGGLVQAGGSLRLSCAASGRIFSTYAMGWYRQAPGKERELVAAISWRGSSTYYADSVKGRFTISRDNAKNTVYLQMNSLKPEDTAVYYCNADKANRYDWGQGTQVTVSS | high polyreactivity
QVQIVESGGGLVQAGGSLRLSCAASGRTLKFNTMGWYRQAPGKERELVAAISGSGGSTYYADSVKGRFTISRDNAKNTVYLQMNSLKPEDTAVYYCAKYGVLRGYGYDYWGQGTQVTVSS | high polyreactivity
QVQLVESGGGLVQAGGSLRLSCAASGSNSPTMLMGGYRKAPGKERELVAAISGGGRTNYADSVKGRFTISRDNAKNTVYLQMNSLKPEETAVYYCAAGGYYQRTRGDWGQGTQVTVSS | high polyreactivity
QVQLVESGGGLVQAGGSLRLSCAASGLTFSDYAMGWYRQAPGKERELVAAITWRGTSTYYADSVKGRFTISRDNAKNTVYLQMNSLKPEDTAVYYCAARKYTGSGTRYYYWGQGTQVTVSS | high polyreactivity
QVQLVESGGGLVQAGGSLRLSCAASGRIFDDYAMGWYRQAPGKERELVAAISSSGGSTYYADSVKGRFTISRDNAKNTVYLQMNSLKPEDTAVYYCARYPPGRRRYEYWGQGTQVTVSS | high polyreactivity

Please give measured polyreactivity (PSR sort gate) of the following entry: "QVQLVESGGGLVQAGGSLRLSCAASGRISESNDMGWYRPAPGKERELVAAISSSGGSTYYADSVKGRFTISRDNAKNTVYLQMNSLKPEDTAVDYCNAVYYRTVLKIGVYEYDYWGQGTQVTVSS"
low polyreactivity

Please give measured polyreactivity (PSR sort gate) of the following entry: "QVQLVESGGGLVQAGGRLRLSCAASGRTSFDYSMGWYRQAPGKDRELVAAITSTGGSTYYADSVKGRFTISRDNAKYTVYLQMNSLKPEDTAVYYCAAVWFTHWGQYQVLEVLYDYWGQGTQVTVSS"
low polyreactivity

Please give measured polyreactivity (PSR sort gate) of the following entry: "QVQLVESGGGLVQAGGSLRLSCAASGSTFGWYAMGWDRQAPGKERELVAAIRNNDGRTYYADSVKGRFTISRDNAKNTVYLQMNSLKPEDTAVDYCNKRLDTVGWYHGYNYWGQGTQVTVSS"
low polyreactivity

Please give measured polyreactivity (PSR sort gate) of the following entry: "QVQLVESGGGLVQAGGSRRLSCAASGRTFYKYAMGWYRQAPGKERELVAAISGGGTTNYADSVKGRFTISRDNAKNTVYLQMNSLKPEDTAVYYCNAARTRWATGYDYWGQGTQVTVSS"
low polyreactivity

Please give measured polyreactivity (PSR sort gate) of the following entry: "QVQLVESGGGLVQAGGSLRLSCAASGYTFSYYTMGRYLQAPGKERELVAVITSAGGTYFADSVKGRFTISRDNAKNTVYLQMNSLKPEDTAVYYCAAERWADYVWIFIDDYDYLGQGTQVTVSS"
low polyreactivity

Please give measured polyreactivity (PSR sort gate) of the following entry: "QVQLVESGGGLVQAGGSLRLSCAASGFTFGSYAMGWYRQAPGKERELVAAITCSGGSTYYADSVKGRFTISRDNAKNTVYLQMNSLKPEDTAVYYCNADVAGGYGWKSYHGYDYWGQGTQVTVSS"
high polyreactivity
